- test_name: liver-stage malaria parasite growth inhibition, primary screen, cell-based, HepG2, luciferase luminescence, HepG2 viability (AID 624349);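 note: 100% = mean of DMSO negative control wells on the same plate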
- cond: P. berghei liver stage in HepG2, luciferase luminescence, concentration not given here; measured here: HepG2 viability without parasites

compound	viability [%]
COC1=C[C@H]2C3=C([C@H]2C1=O)[C@@H](NC(C)=O)CCc1cc(OC)c(OC)c(OC)c13	74.3
C=C(C)[C@@H]1C2C(=O)O[C@H]1[C@H]1OC(=O)[C@@]34OC3C[C@]2(O)[C@@]14C (some centres undefined)	99.2
CN1[C@@H]2CC(=O)C[C@H]1[C@H](O)C2	81.1
CC[C@H](CO)NC(=O)[C@@H]1C=C2c3cccc4[nH]cc(c34)C[C@H]2N(C)C1	73.1
COc1cc(C(=O)OC2C[C@H]3CC[C@@H](C2)N3C)ccc1O (some centres undefined)	98.9
Cc1nnc2n1-c1ccc(Cl)cc1C(c1ccccc1)=NC2	72.1
O=C1c2ccccc2C(=O)c2ccccc21	67.1
N/C(=N\[N+](=O)[O-])N/N=C\c1ccc(-c2cccc([N+](=O)[O-])c2)o1	91.9
CC(C)(O)[C@@H]1[C@H]2OC(=O)[C@@H]1[C@]1(O)C[C@H]3O[C@]34C(=O)O[C@H]2[C@]14C (tested in a mixture with another compound)	67.1
